Cited source for all entries: patent US20070140897A1

assay: Pharmacokinetics after single topical ocular dose 10 μg/eye (BL06029); assay type: in vivo, rabbit; conditions: rabbit, topical or ocular, 10 ug; Cornea; single dose 10 μg/eye (BL06029)

COMPOUND: CCCCC(CC)CNC(=N)NC(=N)NCCCCCCNC(=N)NC(=N)NCC(CC)CCCC (stereo not shown)
UNIT_ANNOTATION: min
Tmax: 15

====

test: Pharmacokinetics after single topical ocular dose 10 μg/eye (BL06029); format: in vivo, rabbit; details: rabbit, topical or ocular, 10 ug; Cornea; single dose 10 μg/eye (BL06029)
QUANTITY: Cmax (ng/g)

MOLECULE: CCCCC(CC)CNC(=N)NC(=N)NCCCCCCNC(=N)NC(=N)NCC(CC)CCCC (stereo not shown) [Alexidine]
RESULT_NUMBER: 997

====

assay: Anterior ocular and systemic pharmacokinetics after repeated topical ocular administration (TID, 10 doses); assay type: in vivo, male New Zealand Composite rabbits; conditions: male, New Zealand Composite, rabbit, topical or ocular, 10 ug; Conjunctiva; TID dosing (dose 10), 10 μg/eye

MOLECULE: CCCCC(CC)CNC(=N)NC(=N)NCCCCCCNC(=N)NC(=N)NCC(CC)CCCC (stereo not shown) [Alexidine]
Tmax: 5 min

====

assay: Anterior ocular and systemic pharmacokinetics after repeated topical ocular administration (TID, 10 doses); assay type: in vivo, male New Zealand Composite rabbits; conditions: male, New Zealand Composite, rabbit, topical or ocular, 10 ug; Cornea; TID dosing (dose 10), 10 μg/eye

MOLECULE: CCCCC(CC)CNC(=N)NC(=N)NCCCCCCNC(=N)NC(=N)NCC(CC)CCCC (stereo not shown)
Cmax, ng/g: 3740

====

experiment: Pharmacokinetics after single topical ocular dose 10 μg/eye (BL06029); type: in vivo, rabbit; conditions: rabbit, topical or ocular, 10 ug; Conjunctiva; single dose 10 μg/eye (BL06029)

MOLECULE: CCCCC(CC)CNC(=N)NC(=N)NCCCCCCNC(=N)NC(=N)NCC(CC)CCCC (stereo not shown)
UNIT_ANNOTATION: ng/g
Cmax: 6440

====

test: Anterior ocular and systemic pharmacokinetics after repeated topical ocular administration (TID, 10 doses); assay type: in vivo, male New Zealand Composite rabbits; details: male, New Zealand Composite, rabbit, conjunctiva, topical; repeated administration of a 10-μg dose; value used for AUC:MIC90 ratio; read-out: AUC(0-24)

MOLECULE: CCCCC(CC)CNC(=N)NC(=N)NCCCCCCNC(=N)NC(=N)NCC(CC)CCCC (stereo not shown)
AUC(0-t) (µg·h/mL): 191
